Here the recorded pEC50 is given for each entry.
# measured.on: full-length beta-Catenin (Uniprot ID P35222) (Homo sapiens (Human)) (UniProt P35222)
# Sequence (P35222 whole entry): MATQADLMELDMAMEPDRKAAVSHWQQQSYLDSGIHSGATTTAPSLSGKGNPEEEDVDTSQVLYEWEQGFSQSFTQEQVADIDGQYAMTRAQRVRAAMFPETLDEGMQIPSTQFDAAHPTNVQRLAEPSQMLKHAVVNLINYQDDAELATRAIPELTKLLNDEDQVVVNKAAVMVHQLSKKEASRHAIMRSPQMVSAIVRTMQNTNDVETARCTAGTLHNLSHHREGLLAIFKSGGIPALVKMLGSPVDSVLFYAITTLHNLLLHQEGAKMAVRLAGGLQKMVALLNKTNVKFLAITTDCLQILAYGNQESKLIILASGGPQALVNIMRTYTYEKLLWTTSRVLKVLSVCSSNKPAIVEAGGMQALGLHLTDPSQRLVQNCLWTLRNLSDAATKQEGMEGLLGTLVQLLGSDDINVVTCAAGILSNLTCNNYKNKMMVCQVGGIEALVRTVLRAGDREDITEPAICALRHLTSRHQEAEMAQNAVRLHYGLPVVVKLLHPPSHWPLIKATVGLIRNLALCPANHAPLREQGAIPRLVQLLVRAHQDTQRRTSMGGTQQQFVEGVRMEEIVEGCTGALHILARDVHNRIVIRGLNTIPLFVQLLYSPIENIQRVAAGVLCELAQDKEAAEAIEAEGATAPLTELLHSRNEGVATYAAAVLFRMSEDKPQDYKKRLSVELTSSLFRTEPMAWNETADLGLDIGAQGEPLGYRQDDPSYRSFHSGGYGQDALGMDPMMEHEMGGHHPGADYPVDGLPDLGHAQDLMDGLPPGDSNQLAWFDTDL
# test.summary: fluorescence polarization competition; displacement of 5FAM-TCF4(10-53) from full-length beta-catenin
Starred links: 1 amine or outer side, 2 acyl side, 3 side chain; linkers in the order of their positions; H or OH if unused. Positions of bridges follow the written chain, without caps; N, C: chain ends. Non-standard residues stand in square brackets, D forms with d. Primed or numbered codes have the meaning given here. B5(4) = 2,2-bis(4-pentenyl)glycine = 2-amino-2-(pent-4-en-1-yl)hept-6-enoic acid (stitching residue), C=CCCCC(CCCC=C)(N[*:1])C(=O)[*:2]; Bta = N[C@@H](Cc1csc2ccccc12)C(=O)O; αAllylPro = C=CC[C@@]1(C(=O)O)CCCN1; 2Thi = N[C@@H](Cc1cccs1)C(=O)O; 3Thi = N[C@@H](Cc1ccsc1)C(=O)O; S8 = C=CCCCCCC[C@](C)(N)C(=O)O; Abu = CC[C@H](N)C(=O)O
Conceptually, pEC50 converts a concentration in mol/L into minus its log10.

binder	pEC50
Ac-[αAllylPro]D[Abu][B5(4)]DEAAFN[S8]F[Bta]Q-NH2 (staple 1-4, 4-11) [I-473]	6.92
Ac-[αAllylPro]D[Abu][B5(4)]DEAAFN[S8]F[Bta]Q-NH2 (staple 1-4, 4-11) [I-474]	7.37
Ac-[αAllylPro]D[Abu][B5(4)]DEAAFQ[S8]F[Bta]Q-NH2 (staple 1-4, 4-11) [I-569]	7.38

Param item = Ac-[αAllylPro]DI[B5(4)]DEAA[2Thi]Q[S8]F[Bta]H-NH2 (staple 1-4, 4-11) [I-488] ; retrieve measured pEC50.
7.37

Param item = Ac-[αAllylPro]DI[B5(4)]DDAAFN[S8][3Thi][Bta]H-NH2 (staple 1-4, 4-11) [I-555] ; retrieve measured pEC50.
7.39
